Test system: PPARg:RXRa IVT, anti-PPARg (NR concentration 270 nM, RXRa partner concentration 90 nM)
assay comment: PBM binding z-score (relative to random genomic background probes); higher = stronger binding; sequences stand for … in GC…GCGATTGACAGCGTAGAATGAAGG
Quick list: PBM binding z-score per entry.

# entry sequence, experimental target, PBM binding z-score
rows = [
    ("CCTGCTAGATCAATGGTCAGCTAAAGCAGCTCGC", "PPARg:RXRa IVT, anti-PPARg (NR concentration 270 nM, RXRa partner concentration 90 nM)", -0.867),
    ("CCAAGCAGGCCAGGGTCACTCAAGCATTTCGCTT", "PPARg:RXRa IVT, anti-PPARg (NR concentration 270 nM, RXRa partner concentration 90 nM)", 0.738),
    ("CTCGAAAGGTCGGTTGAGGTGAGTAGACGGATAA", "PPARg:RXRa IVT, anti-PPARg (NR concentration 270 nM, RXRa partner concentration 90 nM)", 0.996),
    ("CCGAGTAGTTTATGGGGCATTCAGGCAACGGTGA", "PPARg:RXRa IVT, anti-PPARg (NR concentration 270 nM, RXRa partner concentration 90 nM)", 1.4),
    ("CAAACTAGGTCCAGGTCAAAGTCGGTTTGTGCCA", "PPARg:RXRa IVT, anti-PPARg (NR concentration 270 nM, RXRa partner concentration 90 nM)", 3.67),
    ("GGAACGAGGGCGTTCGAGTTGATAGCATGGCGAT", "PPARg:RXRa IVT, anti-PPARg (NR concentration 270 nM, RXRa partner concentration 90 nM)", 0.591),
    ("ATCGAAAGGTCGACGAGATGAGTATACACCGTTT", "PPARg:RXRa IVT, anti-PPARg (NR concentration 270 nM, RXRa partner concentration 90 nM)", 1.36),
    ("TGAATGAGGTTATAAGATCACGGAACGTTGCAAA", "PPARg:RXRa IVT, anti-PPARg (NR concentration 270 nM, RXRa partner concentration 90 nM)", 2.19),
    ("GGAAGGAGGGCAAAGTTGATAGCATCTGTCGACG", "PPARg:RXRa IVT, anti-PPARg (NR concentration 270 nM, RXRa partner concentration 90 nM)", 4.58),
    ("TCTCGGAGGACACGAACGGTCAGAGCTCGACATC", "PPARg:RXRa IVT, anti-PPARg (NR concentration 270 nM, RXRa partner concentration 90 nM)", -0.161),
    ("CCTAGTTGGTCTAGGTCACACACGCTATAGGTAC", "PPARg:RXRa IVT, anti-PPARg (NR concentration 270 nM, RXRa partner concentration 90 nM)", 3.05),
    ("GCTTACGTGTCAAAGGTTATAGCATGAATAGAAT", "PPARg:RXRa IVT, anti-PPARg (NR concentration 270 nM, RXRa partner concentration 90 nM)", 3.96),
]

* * *

Test system: THRa homodimer (NR concentration 90 nM)
assay comment: PBM binding z-score (relative to random genomic background probes); higher = stronger binding; sequences stand for … in GC…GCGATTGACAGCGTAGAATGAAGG
Returns one of rule met or rule not met; rule met when PBM binding z-score is >= -0.3.

# entry sequence, class name
records = [
    ("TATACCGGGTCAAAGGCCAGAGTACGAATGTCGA", "rule met"),
    ("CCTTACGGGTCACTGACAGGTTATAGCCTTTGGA", "rule met"),
    ("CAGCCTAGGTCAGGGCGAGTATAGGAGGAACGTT", "rule met"),
    ("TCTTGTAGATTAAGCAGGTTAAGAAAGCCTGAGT", "rule not met"),
    ("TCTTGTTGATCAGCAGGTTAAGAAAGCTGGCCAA", "rule not met"),
    ("CCTAGTTGGTCAGGCGGTCACACACCGGATATGA", "rule met"),
    ("TCTCGGAGGACACGAAGGTCGGAGCTTTCCAGAG", "rule met"),
    ("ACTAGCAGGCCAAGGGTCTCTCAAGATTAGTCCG", "rule not met"),
    ("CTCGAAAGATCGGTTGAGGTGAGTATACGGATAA", "rule met"),
    ("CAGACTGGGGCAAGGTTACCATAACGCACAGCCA", "rule met"),
    ("TCTTGTAGATAAATAGAGGTTAAGAAAGTGCGCT", "rule met"),
    ("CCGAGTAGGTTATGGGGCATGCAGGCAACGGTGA", "rule not met"),
    ("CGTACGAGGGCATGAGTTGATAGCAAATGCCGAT", "rule met"),
    ("AGTCAAAGTCCATCTAGGTAACGTAAGATATGCT", "rule met"),
    ("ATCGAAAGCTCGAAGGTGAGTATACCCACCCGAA", "rule not met"),
    ("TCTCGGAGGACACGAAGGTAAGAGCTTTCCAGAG", "rule met"),
    ("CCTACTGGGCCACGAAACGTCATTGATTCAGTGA", "rule not met"),
    ("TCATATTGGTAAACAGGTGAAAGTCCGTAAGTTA", "rule met"),
    ("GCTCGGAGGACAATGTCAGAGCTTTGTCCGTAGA", "rule not met"),
    ("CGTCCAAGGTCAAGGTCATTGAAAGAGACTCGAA", "rule met"),
    ("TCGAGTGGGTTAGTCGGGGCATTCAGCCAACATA", "rule met"),
    ("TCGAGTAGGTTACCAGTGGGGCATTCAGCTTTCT", "rule not met"),
    ("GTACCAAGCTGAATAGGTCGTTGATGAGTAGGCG", "rule not met"),
    ("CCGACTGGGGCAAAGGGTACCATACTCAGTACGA", "rule not met"),
    ("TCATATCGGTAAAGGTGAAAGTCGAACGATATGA", "rule not met"),
]

* * *

System: PPARg:RXRa 30nM:10nM, anti-RXR (NR concentration 30 nM, RXRa partner concentration 10 nM)
assay comment: PBM binding z-score (relative to random genomic background probes); higher = stronger binding; sequences stand for … in GC…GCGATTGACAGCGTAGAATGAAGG

# entry sequence, PBM binding z-score
measured = [
    ("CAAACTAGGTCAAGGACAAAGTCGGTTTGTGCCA", 4.87),
    ("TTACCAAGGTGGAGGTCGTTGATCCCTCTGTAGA", 0.972),
    ("AGAGACAGGTGAGTGAAGGTAACTCAGCTGGACG", 0.0896),
    ("AGTCAAAGTTCACTAGATAACGTAAGATTCAGCT", 2.23),
    ("GCAGACAGGTGAAACGCAGGTGACTCAGGGTGGC", -0.264),
    ("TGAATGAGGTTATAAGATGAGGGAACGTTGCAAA", 1.03),
    ("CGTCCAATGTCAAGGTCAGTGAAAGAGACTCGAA", -0.104),
    ("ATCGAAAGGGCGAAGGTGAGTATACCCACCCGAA", 0.766),
    ("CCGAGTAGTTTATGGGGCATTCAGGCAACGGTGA", -0.234),
    ("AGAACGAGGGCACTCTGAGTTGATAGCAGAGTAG", -0.0176),
    ("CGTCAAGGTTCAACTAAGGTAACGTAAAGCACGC", 0.464),
    ("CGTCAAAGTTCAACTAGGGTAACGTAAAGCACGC", 2.98),
]

* * *

System: PPARg:RXRa IVT, anti-PPARg (NR concentration 270 nM, RXRa partner concentration 90 nM)
assay comment: PBM binding z-score (relative to random genomic background probes); higher = stronger binding; sequences stand for … in GC…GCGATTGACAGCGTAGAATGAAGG
Classification field: enter fulfilled for PBM binding z-score values not below 4, not fulfilled for values below it.

# entry sequence, experimental target, class name
data = [
    ("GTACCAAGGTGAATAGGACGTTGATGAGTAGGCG", "PPARg:RXRa IVT, anti-PPARg (NR concentration 270 nM, RXRa partner concentration 90 nM)", "not fulfilled"),
    ("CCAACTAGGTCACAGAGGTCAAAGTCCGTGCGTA", "PPARg:RXRa IVT, anti-PPARg (NR concentration 270 nM, RXRa partner concentration 90 nM)", "fulfilled"),
    ("AGAATGAGGTTACTAAGATCAGGGAATTGCGGTC", "PPARg:RXRa IVT, anti-PPARg (NR concentration 270 nM, RXRa partner concentration 90 nM)", "not fulfilled"),
    ("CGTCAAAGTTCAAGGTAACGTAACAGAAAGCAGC", "PPARg:RXRa IVT, anti-PPARg (NR concentration 270 nM, RXRa partner concentration 90 nM)", "not fulfilled"),
    ("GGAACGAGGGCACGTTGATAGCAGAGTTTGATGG", "PPARg:RXRa IVT, anti-PPARg (NR concentration 270 nM, RXRa partner concentration 90 nM)", "not fulfilled"),
    ("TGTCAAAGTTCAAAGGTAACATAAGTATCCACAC", "PPARg:RXRa IVT, anti-PPARg (NR concentration 270 nM, RXRa partner concentration 90 nM)", "fulfilled"),
    ("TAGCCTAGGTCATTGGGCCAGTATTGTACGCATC", "PPARg:RXRa IVT, anti-PPARg (NR concentration 270 nM, RXRa partner concentration 90 nM)", "not fulfilled"),
    ("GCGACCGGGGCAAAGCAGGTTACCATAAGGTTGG", "PPARg:RXRa IVT, anti-PPARg (NR concentration 270 nM, RXRa partner concentration 90 nM)", "not fulfilled"),
    ("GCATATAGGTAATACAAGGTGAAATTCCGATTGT", "PPARg:RXRa IVT, anti-PPARg (NR concentration 270 nM, RXRa partner concentration 90 nM)", "not fulfilled"),
    ("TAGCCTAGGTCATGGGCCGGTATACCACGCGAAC", "PPARg:RXRa IVT, anti-PPARg (NR concentration 270 nM, RXRa partner concentration 90 nM)", "not fulfilled"),
    ("CCTCGGAGGACAAAAGGTCAGAGCTGTCCGCTTT", "PPARg:RXRa IVT, anti-PPARg (NR concentration 270 nM, RXRa partner concentration 90 nM)", "not fulfilled"),
    ("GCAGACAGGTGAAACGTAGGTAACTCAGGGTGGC", "PPARg:RXRa IVT, anti-PPARg (NR concentration 270 nM, RXRa partner concentration 90 nM)", "not fulfilled"),
    ("CCGACTAGGGCATAAGGTTACCATAAGCCAGCCC", "PPARg:RXRa IVT, anti-PPARg (NR concentration 270 nM, RXRa partner concentration 90 nM)", "not fulfilled"),
    ("GGAACGAGGGCATTTGAGTTGATAGCATGGCGAT", "PPARg:RXRa IVT, anti-PPARg (NR concentration 270 nM, RXRa partner concentration 90 nM)", "not fulfilled"),
    ("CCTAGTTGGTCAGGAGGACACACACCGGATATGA", "PPARg:RXRa IVT, anti-PPARg (NR concentration 270 nM, RXRa partner concentration 90 nM)", "not fulfilled"),
    ("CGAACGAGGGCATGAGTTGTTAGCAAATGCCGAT", "PPARg:RXRa IVT, anti-PPARg (NR concentration 270 nM, RXRa partner concentration 90 nM)", "not fulfilled"),
    ("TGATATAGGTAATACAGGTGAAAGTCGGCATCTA", "PPARg:RXRa IVT, anti-PPARg (NR concentration 270 nM, RXRa partner concentration 90 nM)", "fulfilled"),
    ("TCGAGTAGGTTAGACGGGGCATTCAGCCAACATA", "PPARg:RXRa IVT, anti-PPARg (NR concentration 270 nM, RXRa partner concentration 90 nM)", "not fulfilled"),
    ("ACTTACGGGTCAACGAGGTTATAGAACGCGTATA", "PPARg:RXRa IVT, anti-PPARg (NR concentration 270 nM, RXRa partner concentration 90 nM)", "fulfilled"),
    ("TCGAGTAGGTTACCAATGGGGCATTCCGCTTTCT", "PPARg:RXRa IVT, anti-PPARg (NR concentration 270 nM, RXRa partner concentration 90 nM)", "not fulfilled"),
    ("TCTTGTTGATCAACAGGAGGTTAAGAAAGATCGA", "PPARg:RXRa IVT, anti-PPARg (NR concentration 270 nM, RXRa partner concentration 90 nM)", "not fulfilled"),
    ("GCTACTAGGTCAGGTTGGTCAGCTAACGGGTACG", "PPARg:RXRa IVT, anti-PPARg (NR concentration 270 nM, RXRa partner concentration 90 nM)", "fulfilled"),
    ("TCATATAGGAAATACAGGTGAAAGTCGGCATCTA", "PPARg:RXRa IVT, anti-PPARg (NR concentration 270 nM, RXRa partner concentration 90 nM)", "not fulfilled"),
    ("AGAATGAGGTTAAGATCAGGGACACAGAATACAT", "PPARg:RXRa IVT, anti-PPARg (NR concentration 270 nM, RXRa partner concentration 90 nM)", "not fulfilled"),
    ("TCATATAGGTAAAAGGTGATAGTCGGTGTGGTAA", "PPARg:RXRa IVT, anti-PPARg (NR concentration 270 nM, RXRa partner concentration 90 nM)", "fulfilled"),
]
